Values from patent US20160355530A1

System: HCV 1a-H77 subgenomic replicon
Test: microbe, parasite or virus in culture
Format: cell-based, HCV genotype 1a
Settings: Hepatitis C virus, stable replicon, strain 1a H77, 5% FBS; read-out: 1a H77 5% FBS EC50
measured_property: EC50 (nM)
Supply the numeric figure in nM, leaving out any unit text.

Past entries and their recorded results:
INSERT INTO results (compound, measured_property, measured_value) VALUES
  ('CC(C)(O)C(O)CCN(c1cc2oc(-c3ccc(F)cc3)c(-c3ncc[nH]3)c2cc1C1CC1)S(C)(=O)=O (centres unmarked) [Example 84]', 'EC50', 14.9),
  ('CS(=O)(=O)N(CC1CC1(F)F)c1cc2oc(-c3ccc(F)cc3)c(-c3ncc[nH]3)c2cc1C1CC1 (centres unmarked) [Example 55]', 'EC50', 68);

// query Print HCV 1a-H77 subgenomic replicon EC50 for CNS(=O)(=O)CCCN(c1cc2oc(-c3ccc(F)cc3)c(-c3ncc[nH]3)c2cc1C1CC1)S(C)(=O)=O [Example 86] .
// result 12.3

// query Quote HCV 1a-H77 subgenomic replicon EC50 for entry CS(=O)(=O)N(Cc1sc(Br)nc1C(F)(F)F)c1ccc2c(-c3ncc[nH]3)c(-c3ccccc3)oc2c1 [Example 22] .
// result 2380

// query Give EC50 only, for Cn1cc(-c2ncc(CN(c3ccc4c(-c5ncc[nH]5)c(-c5ccccc5)oc4c3)S(C)(=O)=O)s2)cn1 [Example 26] , using HCV 1a-H77 subgenomic replicon data.
// result 343

// query Fetch value of EC50 on HCV 1a-H77 subgenomic replicon for Cc1c[nH]c(-c2c(-c3ccc(F)cc3)oc3cc(N(CCO)S(C)(=O)=O)c(C4CC4)cc23)n1 [Example 189] .
// result 163

// query Enter recorded EC50 with HCV 1a-H77 subgenomic replicon for CS(=O)(=O)N(CCOc1ccccc1)c1cc2oc(-c3ccc(F)cc3)c(-c3ncc[nH]3)c2cc1C1CC1 [Example 43] here.
// result 269

// query Look up HCV 1a-H77 subgenomic replicon data: EC50 of CC(C)(O)C(O)CN(c1cc2oc(-c3ccc(F)cc3)c(-c3ncc[nH]3)c2cc1C1CC1)S(C)(=O)=O (centres unmarked) [Example 94] , then report it.
// result 60.2

// query State recorded EC50 with HCV 1a-H77 subgenomic replicon, entry CS(=O)(=O)N(CCO)c1cc2oc(-c3ccc(F)cc3)c(-c3ncc[nH]3)c2cc1C1CC1 [Example 109] , no comment.
// result 19.8

// query State EC50 on HCV 1a-H77 subgenomic replicon. Entry: CS(=O)(=O)Nc1cc2oc(-c3ccc(F)cc3)c(-c3nc(Cl)c(Cl)[nH]3)c2cc1C1CC1 [Example 163]
// result 7830

###

Tested on: HCV 1a-H77 subgenomic replicon
Assay: microbe, parasite or virus in culture
Type: cell-based, HCV genotype 1a
Conditions: Hepatitis C virus, stable replicon, strain 1a H77, 5% FBS, no human plasma; read-out: 1a H77 5% FBS EC50
measured_property: pEC50
# pEC50: negative log10 of molar concentration; output just the value

For orientation, consider the following solved cases.
INSERT INTO measurements (molecule, measured_value) VALUES
  ('CCC1NC(c2c(-c3ccc(F)cc3)oc3cc(N(CCC(C)C)S(C)(=O)=O)c(C4CC4)cc23)=NO1 (centres unmarked)', 5.51),
  ('COCCCN(c1cc2oc(-c3ccc(F)cc3)c(-c3ncc[nH]3)c2cc1C1CC1)S(C)(=O)=O', 7.86),
  ('CN(C)CCCN(c1cc2oc(-c3ccc(F)cc3)c(C3=NOCCN3)c2cc1C1CC1)S(C)(=O)=O', 7.19),
  ('C[S+]([O-])c1ccc(-c2ncc(CN(c3ccc4c(-c5ncc[nH]5)c(-c5ccccc5)oc4c3)S(C)(=O)=O)s2)cc1 (centres unmarked)', 6.80),
  ('CCOC(=O)CCCCN(c1cc2oc(-c3ccc(F)cc3)c(-c3ncc[nH]3)c2cc1C1CC1)S(C)(=O)=O', 7.91);

// query Answer with pEC50 of "CS(=O)(=O)N(CCCN1CCCC1)c1cc2oc(-c3ccc(F)cc3)c(C3=NOCCN3)c2cc1C1CC1" measured for HCV 1a-H77 subgenomic replicon.
// result 6.85

// query Jot down pEC50 (HCV 1a-H77 subgenomic replicon) of CC1NC(c2c(-c3ccc(F)cc3)oc3cc(N(CC[S+](C)[O-])S(C)(=O)=O)c(C4CC4)cc23)=NO1 (centres unmarked) .
// result 7.83

// query Under HCV 1a-H77 subgenomic replicon, report pEC50 for "CS(=O)(=O)N(CC1CCCC1)c1cc2oc(-c3ccc(F)cc3)c(-c3ncc[nH]3)c2cc1C1CC1"
// result 7.15

// query Return reported pEC50 for target or system HCV 1a-H77 subgenomic replicon, item "CC(C)(C)Oc1ncc(-c2ncc(CN(c3ccc4c(-c5ncc[nH]5)c(-c5ccccc5)oc4c3)S(C)(=O)=O)s2)c(OC(C)(C)C)n1" .
// result 6.06

// query Report pEC50 on HCV 1a-H77 subgenomic replicon for this entry: CS(=O)(=O)N(CC1CCCO1)c1cc2oc(-c3ccc(F)cc3)c(-c3ncc[nH]3)c2cc1C1CC1 (centres unmarked)
// result 7.16

###

Test system: HCV NS5B polymerase 1a-H77-C316Y
Assay: biochemical
Parameters: species or system HCV genotype 1a
Settings: ratio of enzyme IC50s, 1a H77-C316Y / 1a H77
Listed below: C316Y/1a Fold Resistance values for each entry.
API: value field is a number in fold; no unit string.

INSERT INTO results (compound, measured_property, measured_value) VALUES
  ('CCN(CC)CCN(c1cc2oc(-c3ccc(F)cc3)c(C3=NOCCN3)c2cc1C1CC1)S(C)(=O)=O', 'C316Y/1a Fold Resistance', 26);

// query Item "CS(=O)(=O)N(CC1CCCCC1)c1cc2oc(-c3ccc(F)cc3)c(-c3ncc[nH]3)c2cc1C1CC1" : provide C316Y/1a Fold Resistance
// result 39

// query Please supply the value of reported C316Y/1a Fold Resistance for the item CS(=O)(=O)N(CCC1CCS(=O)(=O)C1)c1cc2oc(-c3ccc(F)cc3)c(C3=NOCN3)c2cc1C1CC1 (stereo not shown)
// result 12

// query Supply C316Y/1a Fold Resistance value. Item: CC(C)(O)C(O)CCN(c1cc2oc(-c3ccc(F)cc3)c(-c3ncc[nH]3)c2cc1C1CC1)S(C)(=O)=O (stereo not shown)
// result 12

// query Give reported C316Y/1a Fold Resistance value for "CS(=O)(=O)N(CCO)c1cc2oc(-c3ccc(F)cc3)c(-c3ncc[nH]3)c2cc1C1CC1"
// result 90

// query Given the compound "CS(=O)(=O)NC(=O)CCCN(c1cc2oc(-c3ccc(F)cc3)c(-c3ncc[nH]3)c2cc1C1CC1)S(C)(=O)=O" , write its reported C316Y/1a Fold Resistance.
// result 14

// query Tell us which C316Y/1a Fold Resistance value is on record for "CC(C)=CCCN(c1cc2oc(-c3ccc(F)cc3)c(-c3ncc[nH]3)c2cc1C1CC1)S(C)(=O)=O"
// result 22

###

System: HCV NS5B polymerase 1a-H77-C316Y
Experiment: biochemical
Parameters: species or system HCV genotype 1a
Details: ratio of enzyme IC50s, 1a H77-C316Y / 1a H77
# C316Y/1a Fold Resistance >= 40 fold gives 1 (yes), anything below gives 0 (no)

Look over these answered cases.
INSERT INTO results (compound, experimental_system, class_assignment) VALUES
  ('CC(C)(O)C(O)CCN(c1cc2oc(-c3ccc(F)cc3)c(C3=NOCN3)c2cc1C1CC1)S(C)(=O)=O (stereo not shown)', 'HCV NS5B polymerase 1a-H77-C316Y', '0 (no)'),
  ('CS(=O)(=O)Nc1cc2oc(-c3ccc(F)cc3)c(C3=NOCN3)c2cc1C1CC1', 'HCV NS5B polymerase 1a-H77-C316Y', '1 (yes)'),
  ('CC(C)CCN(c1cc2oc(-c3ccc(F)cc3)c(C3=NOCC(=O)N3)c2cc1C1CC1)S(C)(=O)=O', 'HCV NS5B polymerase 1a-H77-C316Y', '0 (no)');

// query // inclusive: C316Y/1a Fold Resistance at least 40 fold? input: "COCCN(c1cc2oc(-c3ccc(F)cc3)c(-c3ncc[nH]3)c2cc1C1CC1)S(C)(=O)=O"
// result 1 (yes)

// query Check this compound for C316Y/1a Fold Resistance at or above 40 fold: "CCCCCN(c1cc2oc(-c3ccc(F)cc3)c(-c3ncc[nH]3)c2cc1C1CC1)S(C)(=O)=O"
// result 0 (no)

// query Answer whether C316Y/1a Fold Resistance of "CS(=O)(=O)N(CCCCCO)c1cc2oc(-c3ccc(F)cc3)c(C3=NOCN3)c2cc1C1CC1" is greater than or equal to 40 fold.
// result 0 (no)
